molecular target: T1, Soluble CTLA-4-Ig (extracellular domain of human CTLA-4 fused to the Fc portion of human IgG1) (human, UniProt P16410 36-161, FITC-conjugated in the FACS binding assays); experiment: competitive FACS on transfected cells, FITC-sCTLA-4-Ig with biotin-sCD28-Ig; grade 0-2 of CTLA-4/CD28 ratio vs WT hB7-1
T1 construct: extracellular domain; bought from R&D Systems; also called sCTLA-4-Ig; CTLA-4-Ig Fc; not shown: Fc portion of human IgG1
T1 sequence (P16410 36-161): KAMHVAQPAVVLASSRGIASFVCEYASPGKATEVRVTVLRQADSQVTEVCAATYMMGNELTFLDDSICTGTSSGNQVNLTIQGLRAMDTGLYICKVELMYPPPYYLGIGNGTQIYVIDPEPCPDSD
Would you kindly list Binding Score for each of these binders?
Answer field: number only, no words.

Inquiry: Fill in the blank: the reported Binding Score of Round 2 CTLA4BP 2x1-c4 (ligand) VIHVTKEVKEVATLPCGHNVSVEELAQTRIHWQKEKKMVLTMMSGDMNIWPEYKNRTIFDITNNLSIVILALRPSDEGTYECVVLKYEKDAFKREHLAEVMLSVKADFPTPSITDFEIPPSNIRRIICSTSGGFPEPHLFWLENGEELNAINTTVSQDPGTELYAVSSKLDFNMTTNHNFMCLIKYGHLRVNQTFNWNTPKQEHFPDNLLPSWAITLISVNGIFVICCLTYCFAPRCRERRRNERLRRESVRPV is ____.
Reply text: 1

Inquiry: Please give the measured Binding Score for this binder: Round 2 CTLA4BP-5x4-12c (ligand, residues 1-34 left out as the signal peptide; also called CTLA-4BP 5×4-12c; clone R2 CTLA-4BP 5×4-12c) VIHVTKEVKEVATLSCGHNVSVEELAQTRIHWQKEKKMVLTMMSGDMNIWPEYKNRTIFDITNNLSIVILALRPSDEGTYECVVLKYEKDAFKREHLAEVMLSVKADFPTPSISDFEIPPSNIRRIICSTSGGFPEPHLFWLENGEELNAINTTVSQDPETELYTVSSKLDFNMTTNHSFMCLIKYGHLRVNQTFNWNTPKQEHFPDNLLPSWAITLISANGIFVICCLTYRFAPRCRERKSNETLRRESVRPV
Reply text: 2

Inquiry: Reported Binding Score for Round 2 CTLA4BP 5x3-c3 (ligand) VIHMTKEVKEVATLSCGPNVSVEELAQTRIYWQKEKKMVLTMMSGDMNIWPEYKNRTIFDITNNLSIVILALRPSDEGTYECVVLKYEKDAFKREHLAEVTLSVKADFPTPSISDFEIPTSNIRRIICSTSGGFPEPHLSWLENGEELNAINTTVSQDPGTELYTVSSKLDFNMTTNHSFMCLIKYGHLRVNQTFNWNTPKQEHFPDNLLPSWAITLISVNGIFVICCLTHCFAPRCRERRRNERLRRESVCPV : what is it?
Reply text: 1
